Test system: Mus musculus
TEST: Toxicity in ICR mouse assessed as CB1-induced catalepsy at 0.1 to 1 mg/kg, iv after 15 mins
Type: organism-based
Set-up: dose 0.1-1 mg/kg, route intravenous
PARTICULARS: in vivo, 0.25 h
VALUE TYPE: Activity

INSERT INTO measurements (chemical_smiles, result) VALUES
  ('CC(C)(NC(=O)c1cc2c(n(CC3CCCCC3)c1=O)CCCCCC2)C(=O)NCCCCCO', 'Toxic'),
  ('CC(=O)NCCNC(=O)C(C)(C)NC(=O)c1cc2c(n(CC3CCCCC3)c1=O)CCCCCC2', 'Toxic'),
  ('CC(C)(NC(=O)c1cc2c(n(CC3CCCCC3)c1=O)CCCCCC2)C(=O)NN', 'Toxic'),
  ('CC(C)(NC(=O)c1cc2c(n(CC3CCCCC3)c1=O)CCCCCC2)C(=O)N1CCC(NS(C)(=O)=O)CC1', 'Non-toxic');

Batch: Activity for all items listed.
1. CC(C)(NC(=O)c1cc2c(n(CC3CCCCC3)c1=O)CCCCCC2)C(=O)NCCOCCO
2. CN(CCO)C(=O)C(C)(C)NC(=O)c1cc2c(n(CC3CCCCC3)c1=O)CCCCCC2
3. CC(C)(NC(=O)c1cc2c(n(CC3CCCCC3)c1=O)CCCCCC2)C(=O)NCC(N)=O
4. CC(C)(NC(=O)c1cc2c(n(CC3CCCCC3)c1=O)CCCCCC2)C(=O)N1CCC(C(N)=O)CC1
5. CC(C)(NC(=O)c1cc2c(n(CC3CCCCC3)c1=O)CCCCCC2)C(=O)NNS(C)(=O)=O

Result:
1. Toxic
2. Toxic
3. Toxic
4. Toxic
5. Non-toxic

====

Tested on: Mus musculus
TEST: Toxicity in ICR mouse assessed as CB1-mediated walking with lying on the belly at 0.1 to 1 mg/kg, iv after 15 mins
Format: organism-based
Set-up: dose 0.1-1 mg/kg, route intravenous
PARTICULARS: in vivo, 0.25 h
VALUE TYPE: Activity

Please review the entries below; each comes with its answer.
INSERT INTO measurements (chemical_smiles, value_type, result) VALUES
  ('CN(CCO)C(=O)C(C)(C)NC(=O)c1cc2c(n(CC3CCCCC3)c1=O)CCCCCC2', 'Activity', 'Toxic'),
  ('CC(=O)NCCNC(=O)C(C)(C)NC(=O)c1cc2c(n(CC3CCCCC3)c1=O)CCCCCC2', 'Activity', 'Toxic'),
  ('CC(C)(NC(=O)c1cc2c(n(CC3CCCCC3)c1=O)CCCCCC2)C(=O)NCCOCCO', 'Activity', 'Toxic'),
  ('CC(C)(NC(=O)c1cc2c(n(CC3CCCCC3)c1=O)CCCCCC2)C(=O)NCCCO', 'Activity', 'Toxic'),
  ('CC(C)(NC(=O)c1cc2c(n(CC3CCCCC3)c1=O)CCCCCC2)C(=O)NNS(C)(=O)=O', 'Activity', 'Non-toxic');

Batch: Activity for all items listed.
1. CC(C)(NC(=O)c1cc2c(n(CC3CCCCC3)c1=O)CCCCCC2)C(=O)N1CCC(C(N)=O)CC1
2. CC(C)(NC(=O)c1cc2c(n(CC3CCCCC3)c1=O)CCCCCC2)C(=O)N1CCC(O)CC1

Result:
["Toxic", "Toxic"]

Batch: Activity for all items listed.
1. CC(C)(NC(=O)c1cc2c(n(CC3CCCCC3)c1=O)CCCCCC2)C(=O)NN
2. CC(C)(NC(=O)c1cc2c(n(CC3CCCCC3)c1=O)CCCCCC2)C(=O)NCC(N)=O
3. CC(C)(NC(=O)c1cc2c(n(CC3CCCCC3)c1=O)CCCCCC2)C(=O)N1CCC(NS(C)(=O)=O)CC1
4. COC(=O)C(C)(C)NC(=O)c1cc2c(n(CC3CCCCC3)c1=O)CCCCCC2
5. CC(C)(NC(=O)c1cc2c(n(CC3CCCCC3)c1=O)CCCCCC2)C(=O)NCCCCCO

Result:
1. Toxic
2. Toxic
3. Non-toxic
4. Toxic
5. Toxic
